Entries annotated with measured Baf3-cyPRLR proliferation IC50
Target or system: cyno PRLR on Baf3-cyPRLR cells (cyno)
Experiment: cell-based or functional assay
Unit µg/mL implied. Number only.

Known results for binders:
- Binder: "Ab13 (antibody, V domains shown, murine monoclonal, isotype G2a; also called murine Ab13) VH: QVQLQQPGAELVRPGTSVKLSCKASGYTFTSFWMHWVKQRPGQGLEWIGVIDPSDSHTNYNQKFKGKATLTVNTSSSTAYMHLSSLTSEDSAVYYCARGDYSNWFTYWGQGTLVTVSA VL: DVVMTQTPFSLPVSLGDQASISCRSSQSLVHSNGNTYLHWYLQKPGQSPKLLIYKVSNRFSGVPDRFSGSGSGTDFTLKISRVEAEDLELYFCSQSTHVPWTFGGGTKLEIK"
  Units: "µg/mL"
  Baf3-cyPRLR proliferation IC50: 0.85
- Binder: "Ab8 (antibody, V domains shown, murine monoclonal, isotype G2b; also called murine Ab8) VH: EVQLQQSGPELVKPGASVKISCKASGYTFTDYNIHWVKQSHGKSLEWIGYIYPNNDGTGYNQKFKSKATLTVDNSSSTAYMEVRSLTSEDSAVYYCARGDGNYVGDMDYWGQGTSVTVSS VL: DIQMTQSPASLSASVGETVTITCRASENIYSYLAWYQQKQGKPPQLLVYNAKTLAEGVPSRFSGGGSGTQFSLKINSLQPEDFGSYYCQHHYATPFTFGSGTKLEIK"
  Units: "µg/mL"
  Baf3-cyPRLR proliferation IC50: 1.64

Kindly review the next binder as well.
Prompt: Quick check: Baf3-cyPRLR proliferation IC50 of Ab30 (antibody, human IgG1, kappa, V domains shown, humanized from Ab5; G1; also called Ab2 HC.1a and Ab2 LC.1a) VH: EVQLVQSGAEVKKPGSSVKVSCKASGYTFTSFWMHWVRQAPGQGLEWIGVIDPSDTYTNYNQKFKGRATLTVDESSSTAYMELSSLRSEDTAVYYCARGDYSNWFTYWGQGTLVTVSS VL: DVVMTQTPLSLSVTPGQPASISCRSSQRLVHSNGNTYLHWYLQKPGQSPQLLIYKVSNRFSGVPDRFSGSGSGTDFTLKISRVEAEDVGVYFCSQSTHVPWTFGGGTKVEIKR ?
Completion: 0.24
